Target: THR beta-LBD (Homo sapiens)
Construct: THR alpha-LBD (0.4 nM final concentration) or THR beta-LBD (1.0 nM final concentration) was added
Sequence (P10828 217-461 limits assumed): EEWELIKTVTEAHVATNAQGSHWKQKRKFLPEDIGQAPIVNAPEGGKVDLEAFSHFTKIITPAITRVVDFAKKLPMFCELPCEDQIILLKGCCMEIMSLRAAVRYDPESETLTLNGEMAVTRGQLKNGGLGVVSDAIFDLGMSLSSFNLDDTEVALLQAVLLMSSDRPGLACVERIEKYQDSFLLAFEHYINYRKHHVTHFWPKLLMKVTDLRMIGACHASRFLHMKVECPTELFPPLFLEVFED
Test: LanthaScreen TR-FRET Thyroid Receptor beta Coactivator Assay
Conditions: TR-FRET coactivator assay, 2 hours incubation at room temperature; run in duplicate multiple times, average data; read-out: EC50 THRβ-FRET
ENDPOINT_NAME: pEC50
The scale used: pEC50 is minus the common logarithm of the concentration in molar units.

Lookup: Please report pEC50 for the following compound: "CC(C)c1cc(Oc2c(Cl)cc(-c3nn(CC#N)c(=O)[nH]c3=O)cc2Cl)n[nH]c1=O"
Found: 5.93

Lookup: Please report pEC50 for the following compound: C[C@@H](O)c1cc(Oc2c(Cl)cc(-c3nn(C)c(=O)[nH]c3=O)cc2Cl)n[nH]c1=O (single isomer, unassigned) [Compound 31 P1]
Found: 5.92

Lookup: Please report pEC50 for the following compound: "O=c1[nH]nc(-c2cc(Cl)c(Oc3cc(C4CC4)c(=O)[nH]n3)c(Cl)c2)c(=O)[nH]1"
Found: 6.71

Lookup: Please report pEC50 for the following compound: "CC(C)c1cc(C(=O)c2c(Cl)cc(-c3n[nH]c(=O)[nH]c3=O)cc2Cl)nn(C)c1=O"
Found: 6.87
